target of assay: huLTBP3 proTGFβ1 (Homo sapiens, UniProt P01137+Q9NS15)
Sequence (P01137 30-390): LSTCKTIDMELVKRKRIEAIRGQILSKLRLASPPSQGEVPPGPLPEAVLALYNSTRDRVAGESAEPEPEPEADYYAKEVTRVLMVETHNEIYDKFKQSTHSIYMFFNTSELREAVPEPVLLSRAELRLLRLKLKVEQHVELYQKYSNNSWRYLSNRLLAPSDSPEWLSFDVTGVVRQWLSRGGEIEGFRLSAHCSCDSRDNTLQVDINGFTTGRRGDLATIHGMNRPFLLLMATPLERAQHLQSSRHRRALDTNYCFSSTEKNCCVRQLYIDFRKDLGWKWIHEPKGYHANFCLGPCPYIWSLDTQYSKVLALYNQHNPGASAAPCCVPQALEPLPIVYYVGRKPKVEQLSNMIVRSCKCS
Sequence (Q9NS15 44-1303): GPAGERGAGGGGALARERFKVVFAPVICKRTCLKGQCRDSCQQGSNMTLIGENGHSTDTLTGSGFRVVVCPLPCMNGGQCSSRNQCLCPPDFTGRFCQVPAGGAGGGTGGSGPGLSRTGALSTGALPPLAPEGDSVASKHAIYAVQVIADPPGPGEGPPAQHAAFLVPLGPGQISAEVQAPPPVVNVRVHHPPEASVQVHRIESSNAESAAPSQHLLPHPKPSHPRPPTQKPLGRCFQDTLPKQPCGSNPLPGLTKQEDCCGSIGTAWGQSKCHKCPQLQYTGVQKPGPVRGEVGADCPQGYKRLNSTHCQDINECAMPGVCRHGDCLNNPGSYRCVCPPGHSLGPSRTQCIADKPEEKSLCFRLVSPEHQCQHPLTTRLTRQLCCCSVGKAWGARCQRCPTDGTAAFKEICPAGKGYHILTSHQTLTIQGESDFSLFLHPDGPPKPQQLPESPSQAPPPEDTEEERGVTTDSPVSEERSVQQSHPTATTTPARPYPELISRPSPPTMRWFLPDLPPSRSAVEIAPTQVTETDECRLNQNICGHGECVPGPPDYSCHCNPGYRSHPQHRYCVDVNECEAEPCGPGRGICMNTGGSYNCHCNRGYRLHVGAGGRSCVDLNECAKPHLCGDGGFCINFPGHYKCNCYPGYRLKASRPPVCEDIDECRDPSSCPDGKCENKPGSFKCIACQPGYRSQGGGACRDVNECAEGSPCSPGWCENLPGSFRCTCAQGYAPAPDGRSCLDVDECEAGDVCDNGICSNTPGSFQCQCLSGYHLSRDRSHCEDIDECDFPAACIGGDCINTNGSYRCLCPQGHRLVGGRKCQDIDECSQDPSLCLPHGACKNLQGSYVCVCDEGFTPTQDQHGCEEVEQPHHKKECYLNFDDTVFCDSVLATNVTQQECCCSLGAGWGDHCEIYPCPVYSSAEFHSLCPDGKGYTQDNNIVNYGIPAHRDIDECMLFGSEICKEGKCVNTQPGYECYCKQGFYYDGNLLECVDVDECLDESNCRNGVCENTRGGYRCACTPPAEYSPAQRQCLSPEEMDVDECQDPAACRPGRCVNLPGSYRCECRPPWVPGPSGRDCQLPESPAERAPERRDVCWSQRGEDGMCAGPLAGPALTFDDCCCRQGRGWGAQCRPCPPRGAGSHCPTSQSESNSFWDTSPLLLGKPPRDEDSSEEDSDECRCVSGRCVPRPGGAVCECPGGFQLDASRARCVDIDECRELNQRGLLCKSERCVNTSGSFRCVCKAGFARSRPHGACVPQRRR
assay overview: Octet (BLI) binding, IgG captured on AHC tips, antigen at 100 nM
condition description: Table 9; cycle 3; IgG1-agly; 1:1 fit
measured property: Hu LTBP3-proTGFβ1 Kon (M⁻¹ s⁻¹)
# value in M⁻¹ s⁻¹; strip the unit string

Incoming: GET /values?readout=Hu LTBP3-proTGFβ1 Kon&item= SR-AB41: cycle 3 light chain-optimized antibody, lineage SR-AB23; CDRs SEQ ID NO: 160-165 (antibody, V domains shown) VH: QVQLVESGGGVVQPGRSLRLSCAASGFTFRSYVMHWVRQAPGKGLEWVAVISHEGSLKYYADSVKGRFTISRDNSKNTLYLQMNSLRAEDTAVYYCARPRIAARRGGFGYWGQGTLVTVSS VL: NFMLTQPHSVSESPGKTVTISCTRSSGNIDNNYVQWYQQRPGSSPTTVIYEDNQRPSGVPDRFSGSIDSSSNSASLTISGLKTEDEADYYCQSYDYDNQAVVFGGGTKLTVL
Outgoing: 255000

Incoming: GET /values?readout=Hu LTBP3-proTGFβ1 Kon&item= SR-AB38: cycle 3 light chain-optimized antibody, lineage SR-AB22; CDRs SEQ ID NO: 142-147 (antibody, V domains shown) VH: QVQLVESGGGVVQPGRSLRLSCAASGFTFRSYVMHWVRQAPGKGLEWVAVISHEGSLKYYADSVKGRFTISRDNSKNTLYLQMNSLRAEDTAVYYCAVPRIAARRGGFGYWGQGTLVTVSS VL: NFMLTQPHSVSESPGKTVTISCTRSSGSIDNNYVQWYQQRPGSSPTTVIYEDFIRPSGVPDRFSGSIDSSSNSASLTISGLKTEDEADYYCQSYDDDLQGVVFGGGTKLTVL
Outgoing: 502000

All figures here come from patent US11214614B2.
